From: patent US20130345214A1

# target.or.test.system: 15-LOX-2 (Homo sapiens, UniProt O15296)
# Sequence (O15296 1-676): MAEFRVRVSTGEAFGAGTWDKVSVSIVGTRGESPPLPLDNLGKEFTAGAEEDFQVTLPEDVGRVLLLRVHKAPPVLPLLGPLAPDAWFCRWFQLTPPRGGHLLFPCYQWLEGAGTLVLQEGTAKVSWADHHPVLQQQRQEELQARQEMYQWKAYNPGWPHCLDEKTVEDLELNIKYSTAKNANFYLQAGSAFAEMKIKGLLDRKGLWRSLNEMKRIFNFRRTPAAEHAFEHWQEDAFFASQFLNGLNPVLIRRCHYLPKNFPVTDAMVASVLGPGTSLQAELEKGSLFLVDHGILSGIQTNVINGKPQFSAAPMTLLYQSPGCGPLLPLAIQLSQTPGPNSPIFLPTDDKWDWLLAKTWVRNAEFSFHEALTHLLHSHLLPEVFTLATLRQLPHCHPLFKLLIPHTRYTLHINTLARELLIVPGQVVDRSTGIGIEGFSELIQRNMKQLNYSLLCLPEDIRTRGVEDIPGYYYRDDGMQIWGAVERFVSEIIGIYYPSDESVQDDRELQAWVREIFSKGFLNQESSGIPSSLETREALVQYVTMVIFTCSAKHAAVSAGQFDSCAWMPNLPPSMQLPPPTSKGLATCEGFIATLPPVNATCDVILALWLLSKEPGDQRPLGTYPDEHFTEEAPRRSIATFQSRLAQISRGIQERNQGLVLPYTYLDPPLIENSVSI
# protocol.text: in vitro 15-LOX-2 inhibition (Table 3)
# Format: biochemical
quantity.measured: inhibition at 3 µM (%)
Kindly answer with a numeric value in %, unit omitted.

compound | test.result
Clc1ccc2[nH]c3c(OCCCn4cncn4)c4[nH]c5ccc(Cl)cc5c4cc3c2c1 [drawing 8] | 25
Nc1nnnn1CCOc1c2[nH]c3ccc(Cl)cc3c2cc2c1[nH]c1ccc(Cl)cc12 [drawing 10] | 24
Nc1nnn(CCOc2c3[nH]c4ccc(Cl)cc4c3cc3c2[nH]c2ccc(Cl)cc23)n1 [drawing 9] | 19

For `Cc1c2[nH]c3ccccc3c2cc2c1[nH]c1ccccc12` , write its inhibition at 3 µM. 16

For `Fc1ccc2[nH]c3c(OC[C@H]4CCCN4)c4[nH]c5ccc(F)cc5c4c(Cl)c3c2c1` , write its inhibition at 3 µM. 45

---

# target.or.test.system: human 12-LOX (Homo sapiens, UniProt P18054)
# Construct: ferric oxidation of xylenol orange from arachidonic acid in human blood platelets; endogenous in cells
# Sequence (P18054 1-663): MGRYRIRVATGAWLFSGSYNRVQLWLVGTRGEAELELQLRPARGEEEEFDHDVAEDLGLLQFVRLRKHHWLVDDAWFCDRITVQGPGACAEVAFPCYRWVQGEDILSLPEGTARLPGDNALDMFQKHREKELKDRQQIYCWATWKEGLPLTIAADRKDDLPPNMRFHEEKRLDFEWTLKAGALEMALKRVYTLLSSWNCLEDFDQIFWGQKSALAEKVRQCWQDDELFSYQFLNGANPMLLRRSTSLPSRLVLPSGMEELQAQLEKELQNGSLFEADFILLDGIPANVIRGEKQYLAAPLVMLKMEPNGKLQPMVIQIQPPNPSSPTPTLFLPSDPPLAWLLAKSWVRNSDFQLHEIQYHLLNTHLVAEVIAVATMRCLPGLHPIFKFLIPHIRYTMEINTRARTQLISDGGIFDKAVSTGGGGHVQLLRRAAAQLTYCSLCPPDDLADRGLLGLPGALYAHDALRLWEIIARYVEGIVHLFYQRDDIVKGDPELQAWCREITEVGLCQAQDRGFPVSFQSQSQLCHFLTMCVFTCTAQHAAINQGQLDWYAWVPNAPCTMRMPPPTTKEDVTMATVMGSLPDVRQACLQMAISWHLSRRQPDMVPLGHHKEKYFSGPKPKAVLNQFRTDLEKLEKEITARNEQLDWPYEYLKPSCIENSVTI
# protocol.text: colorimetric platelet 12-LOX activity assay (ferric oxidation of xylenol orange, human blood platelets)
# experimental.parameters: cell-based enzyme assay
quantity.measured: IC50

Given `CCOC(=O)c1ccc2[nH]c3c(OC)c4[nH]c5ccc(C(=O)OCC)cc5c4cc3c2c1` , report its IC50 on human 12-LOX (Homo sapiens, UniProt P18054). 10 nM
